B1: TPR 5TU (parent)
chain: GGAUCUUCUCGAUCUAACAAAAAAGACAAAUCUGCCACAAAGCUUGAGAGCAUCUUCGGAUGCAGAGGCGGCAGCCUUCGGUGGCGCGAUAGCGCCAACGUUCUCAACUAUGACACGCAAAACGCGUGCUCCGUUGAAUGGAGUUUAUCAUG

- Variants of: B1
- Experimental details: polymerase ribozyme fitness, log enrichment relative to wild type (log ratio); higher = more active; in vitro selection for triplet polymerase activity
Fewer inactive variants are shown than the library holds.
Each entry below carries its recorded polymerase ribozyme fitness (log ratio).
Write no unit; give the number alone.

Check out these entries, answers already filled in.
C5A A26U C35G A39U C76U C85U C118U A119C    -4.09
U55A C93A    -2.96
A30C C96G    -4.03
A37U C114U A115G A120U    -3.83
A19U A23G G84A U101G A115C    -3.62
G84U C103U    -1.74
U6G G88A    -4.11
C75U G92C    -1.11

Exercise: Please give the measured polymerase ribozyme fitness (log ratio) for this variant: G94A A113U A120U
Key: -1.56

Exercise: I'd like to know its polymerase ribozyme fitness (log ratio). The variant in question is A12U C14G
Key: -2.05
